// provenance: ChEMBL document CHEMBL4177691

Test: Selectivity index, ratio of IC50 for rat peritoneal macrophages to IC50 for human HeLa cells
Type: toxicity
Conditions: rat peritoneal macrophages versus HeLa cells, read-out: Ratio IC50
If the reported selectivity ratio equals or exceeds 3, assign true. If not, assign false.

Answered examples (4):
Ask: Entry CCOC(=O)c1c(Nc2ccccc2)sc(C(=O)c2cnc3ccc(Br)cn23)c1C : is its selectivity ratio no less than 3?
Result: true

Ask: Entry O=C(c1sc(N2CCOCC2)nc1-c1ccccc1)c1cnc2ccccn12 : is its selectivity ratio no less than 3?
Result: true

Ask: Textbook exercise: given the entry O=C(c1sc(N2CCOCC2)nc1-c1ccc(Cl)cc1)c1cnc2ccc(Br)cn12 , state whether its selectivity ratio is greater than or equal to 3.
Result: false

Ask: Identify whether the reported selectivity ratio of the following compound is 3 or greater: CCOC(=O)c1c(Nc2ccccc2)sc(C(=O)c2cnc3ccc(C)cn23)c1C
Result: false

Others:
Ask: Hi, just wondering whether COc1ccc(Nc2nc(N(C)C)c(C(=O)c3cnc4ccc(Br)cn34)s2)cc1 shows selectivity ratio of 3 or higher.
Result: false

Ask: Check the entry O=C(c1sc(N2CCOCC2)nc1-c1ccc(Cl)cc1)c1cnc2ccccn12 : does selectivity ratio equal or exceed 3?
Result: true

Ask: Reported selectivity ratio reaches at least 3 for COc1ccc(Nc2nc(N(C)C)c(C(=O)c3cnc4ccc(C)cn34)s2)cc1 ?
Result: false
